# assaySystem: T1, Human soluble IL-6R (human, UniProt P08887 20-358)
# T1 construct: Soluble recombinant form; biotinylated in some assays; also called hIL-6R; human IL-6R
# T1 sequence (looked up): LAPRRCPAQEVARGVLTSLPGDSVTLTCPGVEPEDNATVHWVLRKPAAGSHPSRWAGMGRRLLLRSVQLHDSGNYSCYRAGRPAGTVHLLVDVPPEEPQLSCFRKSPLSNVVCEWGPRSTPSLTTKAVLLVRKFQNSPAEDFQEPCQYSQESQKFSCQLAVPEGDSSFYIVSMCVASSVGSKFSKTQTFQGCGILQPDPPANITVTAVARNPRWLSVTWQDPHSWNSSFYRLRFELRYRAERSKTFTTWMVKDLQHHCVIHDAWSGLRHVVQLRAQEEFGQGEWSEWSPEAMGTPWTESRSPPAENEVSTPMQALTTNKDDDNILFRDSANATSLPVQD
# protocolDetails: Biacore, binding to IL-6R
pKd: −log10 of the molar value.
measurementLabel: pKd

IL6R71 (VHH) VHH: EVQLVESGGGLVQPGGSLRLSCAASGFTFDDYDIGWFRQAPGKGREGVSGISSSDGNTYYADSVKGRFTISSDNAKNTVYLQMNSLRPEDTAVYYCAAEPPDSSWYLDGSPEFFKYWGQGTLVTVSS	9.70
IL6R83 (VHH) VHH: EVQLVESGGGLVQPGGSLRLSCAASGFTFDDYGMSWVRQAPGRATEWVSAISWNGNNTYYTESMKGRFTISRDNAKNTLYLQMNSLRPEDTAVYYCVKGSTAIVGVPPTYPDEYDYWGQGTLVTVSS	9.52
IL6R63 (VHH) VHH: EVQLVESGGGLVQPGGSLRLSCAASGSIFKVNAMGWYRQAPGKGRELVAGIISGGSTNYADSVKGRLTISRDNAKNTLYLQMNSLRPEDTAVYYCSFVTTNSDYDLGRDYWGQGTLVTVSS	8.43
IL6R74 (VHH) VHH: EVQLVESGGGLVQPGGSLRLSCAASGFTFDDYDIGWFRQAPGKGREGVSGISSSDGNTYYADSVKGRFTISSDNAKNTLYLQMNSLRPEDTAVYYCAAEPPDSSWYLDGSPEFFKYWGQGTLVTVSS	9.70

The measured values listed here are drawn from patent US20120077731A1.
